Molecular target: human TLR9 (Homo sapiens, UniProt Q9NR96)
Sequence (Q9NR96 26-1032): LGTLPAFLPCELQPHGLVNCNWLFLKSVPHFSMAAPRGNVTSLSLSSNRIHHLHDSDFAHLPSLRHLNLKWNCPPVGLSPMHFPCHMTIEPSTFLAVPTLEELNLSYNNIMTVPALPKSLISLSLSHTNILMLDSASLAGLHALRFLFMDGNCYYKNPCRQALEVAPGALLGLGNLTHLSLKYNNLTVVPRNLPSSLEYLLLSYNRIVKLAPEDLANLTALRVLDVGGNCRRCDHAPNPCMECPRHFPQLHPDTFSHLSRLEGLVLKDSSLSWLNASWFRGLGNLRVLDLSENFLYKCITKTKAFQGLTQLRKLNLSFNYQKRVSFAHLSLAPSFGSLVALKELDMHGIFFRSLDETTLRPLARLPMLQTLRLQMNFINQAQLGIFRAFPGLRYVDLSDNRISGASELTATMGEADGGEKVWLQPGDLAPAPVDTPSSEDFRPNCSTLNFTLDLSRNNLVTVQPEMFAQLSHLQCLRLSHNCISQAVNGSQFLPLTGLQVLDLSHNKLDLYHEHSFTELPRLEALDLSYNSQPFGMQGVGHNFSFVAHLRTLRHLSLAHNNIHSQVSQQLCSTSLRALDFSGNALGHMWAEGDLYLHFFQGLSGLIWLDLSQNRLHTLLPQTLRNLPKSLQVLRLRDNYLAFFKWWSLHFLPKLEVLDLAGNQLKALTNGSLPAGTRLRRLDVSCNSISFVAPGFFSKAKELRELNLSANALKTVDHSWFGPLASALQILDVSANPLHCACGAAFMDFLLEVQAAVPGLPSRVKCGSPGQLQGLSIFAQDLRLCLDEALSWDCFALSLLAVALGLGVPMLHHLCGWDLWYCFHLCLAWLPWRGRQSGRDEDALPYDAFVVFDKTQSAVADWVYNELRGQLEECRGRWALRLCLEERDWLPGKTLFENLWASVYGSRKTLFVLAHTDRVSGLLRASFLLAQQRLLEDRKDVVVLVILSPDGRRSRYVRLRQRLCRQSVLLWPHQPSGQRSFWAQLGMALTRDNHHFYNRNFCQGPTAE
Assay: HEK293-Blue-hTLR-9 cells assay (SEAP reporter, ODN2006 stimulation)
Conditions: HEK293-Blue-hTLR9 cells, ODN2006 ligand, 20 hrs incubation
Protocol: The following tests were carried out in order to determine the activity of the compounds of formula (I) in HEK293-Blue-hTLR-7/8/9 cells assay. HEK293-Blue-hTLR-9 Cells Assay: A stable HEK293-Blue-hTLR-9 cell line was purchased from InvivoGen (Cat. #: hkb-htlr9, San Diego, Calif., USA). These cells were originally designed for studying the stimulation of human TLR9 by monitoring the activation of NF-κB. […]
Here, each record is paired with measured IC50 data.
MEASUREMENT_KIND: IC50

• N#Cc1ccc(N2C[C@H](CN3CCC(N4CCCCC4)CC3)[C@@H](C(F)(F)F)C2)c2nccnc12 = 438 nM
• N#Cc1ccc(N2C[C@H](CN3CCC4(CC3)CNCCO4)[C@@H](C(F)(F)F)C2)c2nccnc12 = 253 nM
• N#Cc1ccc(N2CC(CNC3CCCNCC3)C3(CC3)C2)c2nccnc12 (stereo not shown) = 97 nM
• FC(F)(F)c1ccc(N2C[C@@H](CN3CCC4(CCNC4)C3)[C@H](C(F)(F)F)C2)c2nccnc12 (relative stereo) = 815 nM
• N#Cc1ccc(N2C[C@H](CN3CCC4(CCNC4)C3)[C@@H](C(F)(F)F)C2)c2cccnc12 (stereo partly shown) = 104 nM
• N#Cc1ccc(N2CC(CN3CC4CCC(C3)C4N)C3(CC3)C2)c2nccnc12 (stereo not shown) = 244 nM
• N#Cc1ccc(N2C[C@H](CN3CC4CCC3CN4)[C@@H](C(F)(F)F)C2)c2nccnc12 (stereo partly shown) = 2340 nM
• N#Cc1ccc(N2CC(CN3CC4(CC(N)C4)C3)C3(CC3)C2)c2nccnc12 (stereo not shown) = 153 nM
• FC(F)(F)c1ccc(N2CC(CN3CCC4(CCNCC4)CC3)C3(CC3)C2)c2nccnc12 (stereo not shown) = 383 nM
• N#Cc1ccc(N2CC(CN3CC4(CCCNC4)C3)C3(CC3)C2)c2nccnc12 (stereo not shown) = 82 nM
• C[C@H]1CN(c2ccc(C#N)c3nccnc23)C[C@@H]1CN1CCC2(CCNC2)C1 (stereo partly shown) = 307 nM
• N#Cc1ccc(N2C[C@H](CN3CCC4(CCNCC4)CC3)[C@@H](C(F)(F)F)C2)c2cccnc12 = 76 nM
• N#Cc1ccc(N2CC(CN3CC4CCNCC43)C3(CC3)C2)c2nccnc12 (stereo not shown) = 259 nM
• N#Cc1ccc(N2C[C@H](CN3CCC(N)CC3)[C@@H](C(F)(F)F)C2)c2nccnc12 [Example 26] = 258 nM
• N#Cc1ccc(N2CC(CN3CCC4(CCCNC4)C3)C3(CC3)C2)c2nccnc12 (stereo not shown) = 153 nM
• N#Cc1ccc(N2C[C@@H](CN3CCC4(CCNC4)C3)[C@H](C(F)F)C2)c2cccnc12 (relative stereo) = 85 nM
• N#Cc1ccc(N2C[C@H](CNC3CCNCC3)[C@@H](C(F)(F)F)C2)c2nccnc12 = 87 nM
• N#Cc1ccc(N2CC(CN3CCC(N4CCOCC4)CC3)C3(CC3)C2)c2nccnc12 (stereo not shown) = 605 nM
• CC1(N)CCN(CC2CN(c3ccc(C#N)c4nccnc34)CC23CC3)CC1 (stereo not shown) = 77 nM
• N#Cc1ccc(N2C[C@H](CN3CC4CNCC4C3)[C@@H](C(F)(F)F)C2)c2nccnc12 (stereo partly shown) = 485 nM
• CC1(N)CCN(C[C@H]2CN(c3ccc(C#N)c4nccnc34)C[C@@H]2C(F)(F)F)CC1 = 219 nM
• N#Cc1ccc(N2C[C@H](CN3CCCC4(CCNCC4)C3)[C@@H](C(F)(F)F)C2)c2cccnc12 = 331 nM
• CC[C@@H]1CN(c2ccc(C#N)c3ncccc23)C[C@H]1CN1CCC2(CCNC2)C1 (relative stereo) = 56 nM
• N#Cc1ccc(N2C[C@H](CN3CCC(N)C(F)(F)C3)[C@@H](C(F)(F)F)C2)c2nccnc12 (stereo partly shown) = 23100 nM
• N#Cc1ccc(N2C[C@H](CN3CCC(N4CCCCC4)CC3)[C@@H](C(F)(F)F)C2)c2cccnc12 = 834 nM
• N#Cc1ccc(N2CC(CN3CCOC4(CCNCC4)C3)C3(CC3)C2)c2nccnc12 (stereo not shown) = 869 nM
• N#Cc1ccc(N2CC(CN3CCC4(CCNCC4)CC3)C3(CC3)C2)c2nccnc12 (stereo not shown) = 50 nM
• N#Cc1ccc(N2CC(CN3CCC4(CCNCC4)C3)C3(CC3)C2)c2nccnc12 (stereo not shown) = 80 nM
• N#Cc1ccc(N2C[C@H](CN3CCC(N4CCCCCC4)CC3)[C@@H](C(F)(F)F)C2)c2nccnc12 = 409 nM
• N#Cc1ccc(N2C[C@@H](CN3CCC4(CCNCC4)CC3)[C@H](C(F)F)C2)c2cccnc12 (relative stereo) = 32 nM
• CNCC1CCN(C[C@H]2CN(c3ccc(C#N)c4nccnc34)C[C@@H]2C(F)(F)F)CC1 = 218 nM

// provenance: patent US20210253575A1
